Reference source: ChEMBL document CHEMBL3596147

// reported IC50 per item
- Tested on: HT-29
- Assay explanation: Cytotoxicity against human HT-29 cells assessed as inhibition of cell viability after 48 hrs by SRB assay
- Format: functional, cell-based
- Condition info: HT-29, 48 h
Measured quantity: IC50

>  <Item smiles>
CCN(CC)CCNC(=O)c1c(C)[nH]c(/C=C2\C(=O)Nc3ncc(Cl)cc32)c1C

>  <Measured quantity>
IC50

>  <Result>
6.93 µM

$$$$
>  <Item smiles>
CCN(CC)CCNC(=O)c1c(C)[nH]c(/C=C2\C(=O)Nc3ncc(Br)cc32)c1C

>  <Measured quantity>
IC50

>  <Result>
3.99 µM

$$$$
>  <Item smiles>
Cc1[nH]c(/C=C2\C(=O)Nc3ncc(F)cc32)c(C)c1C(=O)NCC1CCN(C)CC1

>  <Measured quantity>
IC50

>  <Result>
5.72 µM

$$$$
>  <Item smiles>
Cc1[nH]c(/C=C2\C(=O)Nc3ncc(Br)cc32)c(C)c1C(=O)NCC1CCN(C)CC1

>  <Measured quantity>
IC50

>  <Result>
5.57 µM

$$$$
>  <Item smiles>
CCN(CC)CCNC(=O)c1c(C)[nH]c(/C=C2\C(=O)Nc3ccc(F)cc32)c1C

>  <Measured quantity>
IC50

>  <Result>
4.7 µM

$$$$
>  <Item smiles>
Cc1[nH]c(/C=C2\C(=O)Nc3ncc(Br)cc32)c(C)c1C(=O)NCCN1CCCC1

>  <Measured quantity>
IC50

>  <Result>
4.49 µM

$$$$
>  <Item smiles>
Cc1[nH]c(/C=C2\C(=O)Nc3ncc(Br)cc32)c(C)c1C(=O)NCCN(C)C

>  <Measured quantity>
IC50

>  <Result>
5.04 µM

$$$$
>  <Item smiles>
Cc1[nH]c(/C=C2\C(=O)Nc3ncc(Cl)cc32)c(C)c1C(=O)NCC1CCN(C)CC1

>  <Measured quantity>
IC50

>  <Result>
5.57 µM

$$$$
>  <Item smiles>
CCN(CC)CCNC(=O)c1c(C)[nH]c(/C=C2\C(=O)Nc3ncc(F)cc32)c1C

>  <Measured quantity>
IC50

>  <Result>
6.27 µM

$$$$
>  <Item smiles>
Cc1[nH]c(/C=C2\C(=O)Nc3ncc(Cl)cc32)c(C)c1C(=O)NCCN1CCCC1

>  <Measured quantity>
IC50

>  <Result>
12.5 µM

$$$$
